Biological target: SERT L406E (Homo sapiens, UniProt P31645, L406E)
Sequence (P31645 whole entry L406E): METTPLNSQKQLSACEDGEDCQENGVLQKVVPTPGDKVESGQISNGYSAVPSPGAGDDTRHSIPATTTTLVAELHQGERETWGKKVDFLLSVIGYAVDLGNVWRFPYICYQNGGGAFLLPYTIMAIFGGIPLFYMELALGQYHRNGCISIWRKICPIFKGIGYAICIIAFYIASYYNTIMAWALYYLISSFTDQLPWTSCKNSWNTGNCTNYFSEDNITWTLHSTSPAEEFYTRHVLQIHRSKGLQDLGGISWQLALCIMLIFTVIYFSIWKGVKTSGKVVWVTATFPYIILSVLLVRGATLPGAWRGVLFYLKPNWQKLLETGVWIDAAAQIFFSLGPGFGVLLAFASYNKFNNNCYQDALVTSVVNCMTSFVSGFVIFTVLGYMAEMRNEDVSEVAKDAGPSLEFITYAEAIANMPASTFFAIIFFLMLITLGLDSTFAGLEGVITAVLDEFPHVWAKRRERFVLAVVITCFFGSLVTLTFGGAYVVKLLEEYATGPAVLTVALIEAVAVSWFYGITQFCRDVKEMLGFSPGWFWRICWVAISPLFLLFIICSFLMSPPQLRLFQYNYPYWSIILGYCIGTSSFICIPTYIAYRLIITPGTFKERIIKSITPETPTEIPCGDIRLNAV
Experiment: [3H]IMI dissociation rate assay
Settings: SERT L406E (EL4); read-out: Lu AF60097 allosteric potency ([^3H]IMI dissociation IC50)
Recorded Endpoint: IC50

Asked: I'm curious: which IC50 was measured for NC(=O)c1ccc2c(c1)CO[C@@]2(CCCN1CCC(c2ccc3ccc(=O)[nH]c3c2)CC1)c1ccc(F)cc1 [Lu AF60097] tested on SERT L406E (Homo sapiens, UniProt P31645, L406E)?
Given back: 650 nM

----------
Target: SERT E494K (Homo sapiens, UniProt P31645, E494K)
Sequence (P31645 whole entry E494K): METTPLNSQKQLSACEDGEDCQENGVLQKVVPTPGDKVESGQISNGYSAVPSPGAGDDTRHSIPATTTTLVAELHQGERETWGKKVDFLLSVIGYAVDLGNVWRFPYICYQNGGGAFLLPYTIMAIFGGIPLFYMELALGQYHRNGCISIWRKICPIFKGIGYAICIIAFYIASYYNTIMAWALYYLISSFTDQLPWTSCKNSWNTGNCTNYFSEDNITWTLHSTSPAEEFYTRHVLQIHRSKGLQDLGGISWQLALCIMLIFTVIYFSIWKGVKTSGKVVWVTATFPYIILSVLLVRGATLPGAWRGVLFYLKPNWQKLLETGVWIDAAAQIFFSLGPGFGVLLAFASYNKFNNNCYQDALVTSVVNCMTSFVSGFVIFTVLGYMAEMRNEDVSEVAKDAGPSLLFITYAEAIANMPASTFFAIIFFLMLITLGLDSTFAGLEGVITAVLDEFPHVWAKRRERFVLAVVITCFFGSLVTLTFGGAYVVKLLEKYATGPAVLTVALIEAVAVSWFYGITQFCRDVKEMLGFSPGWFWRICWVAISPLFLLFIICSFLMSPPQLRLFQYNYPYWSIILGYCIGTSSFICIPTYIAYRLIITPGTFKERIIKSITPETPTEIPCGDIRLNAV
Test: [3H]IMI dissociation rate assay
Conditions: SERT E494K (TM10); read-out: Lu AF60097 allosteric potency ([^3H]IMI dissociation IC50)
Recorded Endpoint: pIC50
Quick note: pIC50 values are minus log10 of concentrations in mol/L.

Asked: I am curious: what pIC50 value has been reported for `NC(=O)c1ccc2c(c1)CO[C@@]2(CCCN1CCC(c2ccc3ccc(=O)[nH]c3c2)CC1)c1ccc(F)cc1` ?
Given back: 5.05
